The values you see were collected from ChEMBL document CHEMBL1156251.

# System: Escherichia coli
# assay-name: Antimicrobial activity against Escherichia coli at 10 ug/mL
# Type: functional
Where a SMILES comes first, the peptide text is derived from it. Bridges are numbered along the chain shown (N, C = ends). [ ]: non-standard residue; d: D form. The star is where a group is joined. Octanoyl = CCCCCCCC(=O)*; Dab = NCC[C@H](N)C(=O)O
attribute-measured: GI (square millimeter)

CCCCCCCC(=O)N[C@H](C(=O)N[C@H](C)C(=O)N[C@H]1CCNC(=O)[C@H]([C@@H](C)O)NC(=O)[C@H](CCN)NC(=O)[C@H](CCN)NC(=O)[C@H]([C@H](C)O)NC(=O)[C@@H](Cc2ccccc2)NC(=O)[C@H](CCN)NC1=O)[C@@H](C)O | 60
CCCCCCCC(=O)N[C@H](C(=O)N[C@@H](CC)C(=O)N[C@H]1CCNC(=O)[C@H]([C@@H](C)O)NC(=O)[C@H](CCN)NC(=O)[C@H](CCN)NC(=O)[C@H](CC(C)C)NC(=O)[C@@H](Cc2ccccc2)NC(=O)[C@H](CCN)NC1=O)[C@@H](C)O | 32
CCCCCCC(=O)N[C@H](C(=O)N[C@H](CO)C(=O)N[C@H]1CCNC(=O)[C@H]([C@@H](C)O)NC(=O)[C@H](CCN)NC(=O)[C@H](CCN)NC(=O)[C@H]([C@H](C)O)NC(=O)[C@@H](Cc2ccccc2)NC(=O)[C@H](CCN)NC1=O)[C@@H](C)O | 200
CCCCCCCC(=O)N[C@H](C(=O)N[C@@H](CCN)C(=O)N[C@H]1CCNC(=O)[C@H]([C@@H](C)O)NC(=O)[C@H](CCN)NC(=O)[C@H](CCN)NC(=O)[C@H](CC(C)C)NC(=O)[C@H](Cc2ccccc2)NC(=O)[C@H](CCN)NC1=O)[C@@H](C)O | 0
CCCCCCCC(=O)N[C@H](C(=O)N[C@@H](CO)C(=O)N[C@H]1CCNC(=O)[C@H]([C@@H](C)O)NC(=O)[C@H](CCN)NC(=O)[C@H](CCN)NC(=O)[C@H](CC(C)C)NC(=O)[C@@H](Cc2ccccc2)NC(=O)[C@H](CCN)NC1=O)[C@@H](C)O (Octanoyl-TS[Dab][Dab][dF]L[Dab][Dab]T; lactam 3-C) | 171
